- testSystem: panel of 255 wild-type kinases (Homo sapiens)
- Sequence (Q9UK32 whole entry): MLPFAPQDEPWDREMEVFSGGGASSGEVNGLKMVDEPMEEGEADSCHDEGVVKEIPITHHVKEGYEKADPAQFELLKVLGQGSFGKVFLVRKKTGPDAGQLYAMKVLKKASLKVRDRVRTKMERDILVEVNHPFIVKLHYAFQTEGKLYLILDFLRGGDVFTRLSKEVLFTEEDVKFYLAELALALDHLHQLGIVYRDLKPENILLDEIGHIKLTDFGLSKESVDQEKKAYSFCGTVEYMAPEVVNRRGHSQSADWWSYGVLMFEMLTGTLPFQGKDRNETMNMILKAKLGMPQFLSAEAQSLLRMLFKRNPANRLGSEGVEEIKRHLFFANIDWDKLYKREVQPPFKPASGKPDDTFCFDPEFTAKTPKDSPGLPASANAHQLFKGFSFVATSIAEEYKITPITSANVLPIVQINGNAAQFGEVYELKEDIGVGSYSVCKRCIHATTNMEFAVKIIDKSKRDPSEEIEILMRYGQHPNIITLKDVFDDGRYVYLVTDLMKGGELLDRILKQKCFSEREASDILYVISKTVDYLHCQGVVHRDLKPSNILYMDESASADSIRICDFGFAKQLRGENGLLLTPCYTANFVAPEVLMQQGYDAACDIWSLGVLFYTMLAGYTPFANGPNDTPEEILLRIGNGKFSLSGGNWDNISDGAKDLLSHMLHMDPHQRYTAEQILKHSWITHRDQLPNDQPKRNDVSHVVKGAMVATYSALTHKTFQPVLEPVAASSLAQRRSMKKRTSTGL
- protocolSummary: Kinase panel profiling at 1 µmol/L (MSA or IMAP), percentage inhibition
- Format: biochemical
- assaySetup: kinase RSK4; 1 µmol/L single concentration; read-out: %-inhibition at 1 µmol/L, RSK4
property: inhibition at 1 µM (%)
Entry rule: numbers only, all in %.

In the examples that follow, each entry is paired with its recorded inhibition at 1 µM.
FC(F)(F)c1ccc(CNc2ccc(Cc3c[nH]c4ncc(Cl)cc34)cn2)cn1 [pexidartinib]	24
Cn1cc(-c2cc3c(N4CCN(c5ncc([C@@](C)(N)c6ccc(F)cc6)cn5)CC4)ncnn3c2)cn1 [avapritinib]	7.6
Cc1nc(NC(=O)N2CCC[C@H]2C(N)=O)sc1-c1ccnc(C(C)(C)C(F)(F)F)c1 [alpelisib]	-4
COc1cc2ncnc(Nc3ccc(F)c(Cl)c3)c2cc1NC(=O)/C=C/CN1CCCCC1 [dacomitinib]	16
C=CC(=O)N1CCC([C@@H]2CCNc3c(C(N)=O)c(-c4ccc(Oc5ccccc5)cc4)nn32)CC1 [zanubrutinib]	-6
CCN1C(=O)N(c2c(F)c(OC)cc(OC)c2F)Cc2cnc3[nH]c(CN4CCOCC4)cc3c21 [pemigatinib]	-7

Now for another entry.
input: Recall the recorded inhibition at 1 µM for O=C(Nc1cnn2ccc(N3CCC[C@@H]3c3cc(F)ccc3F)nc12)N1CC[C@H](O)C1 [larotrectinib] with panel of 255 wild-type kinases (Homo sapiens) and state it.
output: -7
